conditions: 298.15 K; 101.33 kPa; Liquid; Vibrating tube method
Could you please report measured mass density for the items listed next?
Give the quantity in kg/m3, number only.

Lab note: CC(C)CCl [1-chloro-2-methylpropane] gave mass density of 870.89

Lab note: CCC(C)Cl (stereo not given) [2-chlorobutane] gave mass density of 867.37

Lab note: CC(C)(C)Cl [2-chloro-2-methylpropane] gave mass density of 835.67

Lab note: CC1CCCO1 (stereo not given) [2-methyltetrahydrofuran] gave mass density of 849.2

Lab note: CCCCCl [1-chlorobutane] gave mass density of 880.69

---

conditions: 298.15 K; 101.33 kPa; Liquid; Anton Paar DSA 48
Numbers after ± are expanded uncertainties.
ENDPOINT_NAME: speed of sound
Show the value, then the unit it is measured in.

Lab note: CCC(C)Cl (stereo not given) gave speed of sound of 1066.8 ± 1.4 m/s

Lab note: `CC(C)CCl` gave speed of sound of 1079.2 ± 1.4 m/s

Lab note: `CCCCCl` gave speed of sound of 1118.8 ± 1.4 m/s

Lab note: CC1CCCO1 (stereo not given) [2-methyltetrahydrofuran] gave speed of sound of 1202.6 ± 1.4 m/s

Lab note: `CC(C)(C)Cl` gave speed of sound of 983.1 ± 1.4 m/s

---

conditions: 333.15 K; 101.33 kPa; Liquid; Anton Paar DSA 48
ENDPOINT_NAME: speed of sound (m/s)
Give the quantity in m/s, number only.

Lab note: CC1CCCO1 (stereo not given) [2-methyltetrahydrofuran] gave speed of sound of 1136.2

Lab note: `CC(C)CCl` gave speed of sound of 1016.3

Lab note: `CC(C)(C)Cl` gave speed of sound of 920.3

Lab note: CCC(C)Cl (stereo not given) gave speed of sound of 1006.9

Lab note: `CCCCCl` gave speed of sound of 1057.1

---

settings: 313.15 K; 101.33 kPa; Liquid; Vibrating tube method
Could you please report measured mass density for the items listed next?
Give the quantity in kg/m3, number only.

Lab note: CC1CCCO1 (stereo not given) [2-methyltetrahydrofuran] gave mass density of 833.88

Lab note: CC(C)(C)Cl [2-chloro-2-methylpropane] gave mass density of 818.43

Lab note: CCC(C)Cl (stereo not given) [2-chlorobutane] gave mass density of 850.16

Lab note: CCCCCl [1-chlorobutane] gave mass density of 863.86

Lab note: CC(C)CCl [1-chloro-2-methylpropane] gave mass density of 853.56
